Cited source for all entries: patent US12649778

Please provide measured ratio (OD450 to WT OD450) for the entries that follow.
biological target: Peptide 1593 (…) (Mycobacterium tuberculosis); assay: ELISA, NNK clone supernatant on coated peptide

-- ask Provide only the value of recorded ratio (OD450 to WT OD450) for 65D3 chimeric Fab, NNK library H17 mutant S to W (H-S55W) (Fab, V domains shown) VH: QSLEESGGRLVTPGGSLTLTCTVSGFSLSTHDISWVRQAPGKGLEWIGVIARRGWTYYASWAKGRFTISKTSTTVDLKITSPTIEDTATYFCAREEFDFWGQGTLVTVSS VL: AVLTQTASPVSAAVGGTVTISCQSSQSVYNNKELSWFQQKPGQPPKLLISYASTLASGVPSRFKGSGSGTQFTLTISDLECDDAATYYCLGGYASTIDMWAFGGGTEVVVK
-- reply 2.06 fold of WT

-- ask Provide only the value of recorded ratio (OD450 to WT OD450) for 65D3 chimeric Fab, NNK library L18 mutant L to N (VL L55N) (Fab, V domains shown) VH: QSLEESGGRLVTPGGSLTLTCTVSGFSLSTHDISWVRQAPGKGLEWIGVIARRGSTYYASWAKGRFTISKTSTTVDLKITSPTIEDTATYFCAREEFDFWGQGTLVTVSS VL: AVLTQTASPVSAAVGGTVTISCQSSQSVYNNKELSWFQQKPGQPPKLLISYASTNASGVPSRFKGSGSGTQFTLTISDLECDDAATYYCLGGYASTIDMWAFGGGTEVVVK
-- reply 1.26 fold of WT

-- ask Provide only the value of recorded ratio (OD450 to WT OD450) for 65D3 chimeric Fab, NNK library L18 mutant L to S (VL L55S) (Fab, V domains shown) VH: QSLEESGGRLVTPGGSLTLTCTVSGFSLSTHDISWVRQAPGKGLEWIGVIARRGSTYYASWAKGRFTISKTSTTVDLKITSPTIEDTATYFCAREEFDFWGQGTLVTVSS VL: AVLTQTASPVSAAVGGTVTISCQSSQSVYNNKELSWFQQKPGQPPKLLISYASTSASGVPSRFKGSGSGTQFTLTISDLECDDAATYYCLGGYASTIDMWAFGGGTEVVVK
-- reply 1.3 fold of WT
